- target_or_test_system: T1, soluble human CD16A (sCD16A) (human, UniProt P08637 17-203)
- T1 construct: CD16A truncated just prior to the transmembrane region, expressed in HEK-293; The last seven residues come from vector pCDNA3.1; also called soluble form of human CD16A
- T1 sequence (P08637 other isoform, or with tags, fused parts or gaps limits assumed): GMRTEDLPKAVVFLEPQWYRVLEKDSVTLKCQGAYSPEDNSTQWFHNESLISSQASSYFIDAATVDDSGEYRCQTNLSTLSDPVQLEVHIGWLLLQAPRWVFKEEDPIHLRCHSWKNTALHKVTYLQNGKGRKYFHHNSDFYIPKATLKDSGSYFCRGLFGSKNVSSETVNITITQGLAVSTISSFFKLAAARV
- protocol_details: ELISA, captured sCD16A
assay_readout: binding result

// sample hu3G8VH-28/hu3G8VL-1 (antibody, VH fused to human Cγ1 constant region) VH: QVTLRESGPALVKPTQTLTLTCTFSGFSLSTSGVGVGWIRQPPGKALEWLAHIWWDDDKRYSPSLKSRLTISKDTSKNQVVLTMTNMDPVDTATYYCAAINPAYFDYWGQGTLVTVSS light: DIVMTQSPDSLAVSLGERATINCKASQSVDFDGDSFMNWYQQKPGQPPKLLIYTTSNLESGVPDRFSGSGSGTDFTLTISSLQAEDVAVYYCQQSNEDPYTFGQGTKLEIKRTVAAPSVFIFPPSDEQLKSGTASVVCLLNNFYPREAKVQWKVDNALQSGNSQESVTEQDSKDSTYSLSSTLTLSKADYEKHKVYACEVTHQGLSSPVTKSFNRGEC , its binding result was binds

// sample hu3G8VH-35/hu3G8VL-1 (antibody, VH fused to human Cγ1 constant region) VH: QITLKESGPTLVKPTQTLTLTCTFSGFSLSTSGVGVGWIRQPPGKALEWLAHIWWDDDKRYSPSLKSRLTISKDTSKNQVVLTMTNMDPVDTATYYCAQINPAYFAYWGQGTLVTVSS light: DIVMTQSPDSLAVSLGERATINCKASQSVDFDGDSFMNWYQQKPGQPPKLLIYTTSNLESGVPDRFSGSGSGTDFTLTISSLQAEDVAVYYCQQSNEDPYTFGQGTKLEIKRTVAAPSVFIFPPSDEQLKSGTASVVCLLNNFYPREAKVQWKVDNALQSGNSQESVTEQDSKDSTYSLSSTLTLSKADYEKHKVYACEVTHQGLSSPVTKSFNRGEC , its binding result was binds

// sample hu3G8VH-29/hu3G8VL-1 (antibody, VH fused to human Cγ1 constant region) VH: QVTLRESGPALVKPTQTLTLTCTFSGFSLSTSGVGVGWIRQPPGKALEWLAHIWWDDDKRYSPSLKSRLTISKDTSKNQVVLTMTNMDPVDTATYYCAHINPAYFDYWGQGTLVTVSS light: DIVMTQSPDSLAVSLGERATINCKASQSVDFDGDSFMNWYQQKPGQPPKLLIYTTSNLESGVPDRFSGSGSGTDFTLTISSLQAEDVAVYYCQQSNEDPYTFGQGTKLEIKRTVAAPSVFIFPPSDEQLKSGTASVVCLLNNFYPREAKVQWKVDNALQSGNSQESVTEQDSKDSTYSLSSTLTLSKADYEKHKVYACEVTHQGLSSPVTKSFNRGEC , its binding result was binds
